- assay_details: recombinant barcode read abundance after kanamycin selection (control-corrected) (log10(CPM+1)); higher = more efficient recombination; sequences stand for … in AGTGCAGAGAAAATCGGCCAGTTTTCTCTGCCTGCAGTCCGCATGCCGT…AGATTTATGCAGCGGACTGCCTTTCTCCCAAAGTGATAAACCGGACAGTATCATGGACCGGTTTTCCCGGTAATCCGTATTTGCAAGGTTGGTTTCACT; site = the 11-nt target
outcome_measure: recombinant barcode read abundance (log10)
Give bare numbers.

Illustrative cases are given below, each with its answer.
primary_sequence	measured_number
GATACTACTTGGGTTCTAACCTGTTGCAG (site GATACTACTCT)	0.17
AATATCTCTTGGGTTCTAACCTGTTGCCA (site AATATCTCTTG)	0.278
CGGTGAACTTGGGTTCTAACCTGTTGCCT (site CCGTGAACTAG)	0.148
GATCAGCCTTGGGTTCTAACCTGTTGCCT (site GATCTGCCTAG)	0.063
CATAACGCTTGGGTTCTAACCTGTTGCCT (site GCATCTACTTA)	0.102

Dear colleague, could you please provide recombinant barcode read abundance (log10) for the sequences listed below?
1. CATGATTCTTGGGTTCTAACCTGTTGCCT (site CATCATTCTAG)
2. TAGCATACTTGGGTTCTAACCTGTTGCCT (site TAGCATACTGG)
3. TAGTCTCCTTGGGTTCTAACCTGTTGCGT (site TAGTTTCCTAC)

A:
0.087
0.308
0.135

* * *

- assay_details: recombinant UMI read abundance after kanamycin selection (control-corrected) (log10(CPM+1)); higher = more efficient recombination; extreme values may be limits of the assay; sequences stand for … in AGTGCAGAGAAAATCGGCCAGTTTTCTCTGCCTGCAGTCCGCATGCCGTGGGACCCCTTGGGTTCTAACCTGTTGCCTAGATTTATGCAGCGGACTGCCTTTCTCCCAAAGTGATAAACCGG…AGGTTGGTTTCACT; site = the 11-nt donor
Field: recombinant UMI read abundance (log10). Provide a value for each of the sequences that follow.
Give bare numbers.

primary_sequence	outcome_measure	measured_number
CATGCCTCATGGACCGGTTTTCCCGGTAATCCGTATTTGTG (site CATGCCTCTCA)	recombinant UMI read abundance (log10)	1.43
GTATGTACATGGACCGGTTTTCCCGGTAATCCGTATTTGTA (site GTATGGACTTA)	recombinant UMI read abundance (log10)	0.499
CAAGCATCATGGACCGGTTTTCCCGGTAATCCGTATTTGCT (site CAAGCAACTAG)	recombinant UMI read abundance (log10)	0

Q: # input sequence: TCTAAATCATGGACCGGTTTTCCCGGTAATCCGTATTTGTT (site TCTAAATCTAA) ; wanted: its recombinant UMI read abundance (log10)
A: 0

* * *

Field: recombinant UMI read abundance (log10). Provide a value for each of the sequences that follow.
- assay_details: recombinant UMI read abundance after kanamycin selection (control-corrected) (log10(CPM+1)); higher = more efficient recombination; extreme values may be limits of the assay; sequences stand for … in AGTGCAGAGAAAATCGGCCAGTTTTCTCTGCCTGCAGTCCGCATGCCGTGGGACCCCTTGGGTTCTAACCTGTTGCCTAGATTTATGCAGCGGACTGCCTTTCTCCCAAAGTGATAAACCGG…AGGTTGGTTTCACT; site = the 11-nt donor
Give bare numbers.

Illustrative cases are given below, each with its answer.
primary_sequence	outcome_measure	measured_number
GGATAGACATGGACCGGTTTTCCCGGTAATCCGTATTTGGC (site GGATAGACTGC)	recombinant UMI read abundance (log10)	2.35
GCCTTATCATGGACCGGTTTTCCCGGTAATCCGTATTTGAA (site GCCTTATCTTT)	recombinant UMI read abundance (log10)	0.731
GCCCGTACATGGACCGGTTTTCCCGGTAATCCGTATTTGCT (site GCCCGTACTAG)	recombinant UMI read abundance (log10)	2.32

Dear colleague, could you please provide recombinant UMI read abundance (log10) for the sequences listed below?
1. CTAAGGGCATGGACCGGTTTTCCCGGTAATCCGTATTTGAT (site CTAAGGGCTAT)
2. ACTCCGACATGGACCGGTTTTCCCGGTAATCCGTATTTGGC (site ACTCCGACTGC)
3. CAATGGTCATGGACCGGTTTTCCCGGTAATCCGTATTTGAA (site CAATGTTCTTT)
4. GTGGAGGCATGGACCGGTTTTCCCGGTAATCCGTATTTGTT (site GTGGAGGCTGA)

A:
1: 2.15; 2: 1.98; 3: 0; 4: 2.66
